Measured Luciferase expression as a percentage of that achieved using Lipofectamine 2000 by item
tested on: cos-7 cells; assay: DNA transfection: luciferase expression relative to Lipofectamine 2000; format: cell-based; settings: lipid/DNA 25 w/w; 300 ng Luciferase DNA per well; luciferase assay after 48 hours
Note to self: number, then unit, no commentary.

So what's the measured Luciferase expression as a percentage of that achieved using Lipofectamine 2000 for this one? CCCCCCCCCCCCCCOC(=O)CCN(CCOCCO)CCC(=O)OCCCCCCCCCCCCCC [LF31]
266.8%

So what's the measured Luciferase expression as a percentage of that achieved using Lipofectamine 2000 for this one? CCCCCCCCCCCCCOC(=O)CCN(CCOCCO)CCC(=O)OCCCCCCCCCCCCC [LE31]
9.5%

So what's the measured Luciferase expression as a percentage of that achieved using Lipofectamine 2000 for this one? CCCCCCCCCCCCCCOC(=O)CCN(CCC(=O)OCCCCCCCCCCCCCC)CCN(CC)CC [LF75]
1.7%

So what's the measured Luciferase expression as a percentage of that achieved using Lipofectamine 2000 for this one? CCCCCCCCCCCCCCOC(=O)CCN(CCC(=O)OCCCCCCCCCCCCCC)CC1CCCO1 (centres unmarked) [LF15]
0.1%
